test system: Actinomyces viscosus; experiment: Phenotype microarray metabolic activity; assay type: cell-based; conditions: A viscosus; 48 hrs
Each record is given True if its reported metabolic activity: OD 492 nm divided by OD of control (control = 1) is strictly below 3. Records at or above 3 are given False.

Sample answers from the record:
{"MOLECULE": "O[C@H]1[C@H](O)[C@@H](O)[C@H](O)[C@@H](O)[C@H]1O [Myo-Inositol]", "ASSIGNED_CATEGORY": "False"}
{"MOLECULE": "OC[C@@H](O)[C@@H](O[C@H]1O[C@H](CO)[C@H](O)[C@H](O)[C@H]1O)[C@H](O)[C@@H](O)CO [D-Lactitol, 4-O-α-D-galactopyranosyl-D-glucitol]", "ASSIGNED_CATEGORY": "False"}

Then there is this molecule:
# strict comparison: is reported metabolic activity: OD 492 nm divided by OD of control (control = 1) < 3? input = CC(=O)N[C@H](C=O)[C@@H](O)[C@H](O)[C@H](O)CO [N-acetyl-D-mannosamine, 2-acetamido-2-deoxy-D-mannose]
True
